Data provenance: ChEMBL document CHEMBL1961873

molecular target: Serine/threonine-protein kinase D1 (Homo sapiens) (UniProt Q15139); conditions: at 0.1 µM;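 further: values given as mean inhibition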
Sequence (Q15139 whole entry): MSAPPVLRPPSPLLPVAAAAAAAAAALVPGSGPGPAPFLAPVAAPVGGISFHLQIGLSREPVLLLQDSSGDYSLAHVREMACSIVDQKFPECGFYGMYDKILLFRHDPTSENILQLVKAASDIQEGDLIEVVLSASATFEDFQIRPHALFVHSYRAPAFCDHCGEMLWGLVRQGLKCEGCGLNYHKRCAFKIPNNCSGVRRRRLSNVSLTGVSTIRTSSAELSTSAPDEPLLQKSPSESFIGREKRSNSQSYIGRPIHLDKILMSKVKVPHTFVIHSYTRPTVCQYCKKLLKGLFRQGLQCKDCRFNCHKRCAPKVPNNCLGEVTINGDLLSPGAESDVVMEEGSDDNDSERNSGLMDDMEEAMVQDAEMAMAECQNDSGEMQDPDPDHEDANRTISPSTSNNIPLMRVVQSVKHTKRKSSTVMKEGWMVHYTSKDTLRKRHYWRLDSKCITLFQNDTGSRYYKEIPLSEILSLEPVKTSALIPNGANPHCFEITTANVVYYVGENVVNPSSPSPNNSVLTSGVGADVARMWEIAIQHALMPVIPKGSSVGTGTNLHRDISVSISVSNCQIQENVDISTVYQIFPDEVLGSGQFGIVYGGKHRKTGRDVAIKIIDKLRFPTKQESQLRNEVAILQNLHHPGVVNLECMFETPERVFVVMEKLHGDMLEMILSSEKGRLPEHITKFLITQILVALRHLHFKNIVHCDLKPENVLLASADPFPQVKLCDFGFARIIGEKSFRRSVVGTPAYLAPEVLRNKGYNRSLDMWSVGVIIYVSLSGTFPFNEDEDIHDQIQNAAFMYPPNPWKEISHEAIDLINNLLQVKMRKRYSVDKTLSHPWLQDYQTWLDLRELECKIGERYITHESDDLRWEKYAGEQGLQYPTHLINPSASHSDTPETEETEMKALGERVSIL
quantity: inhibition (%)
Give bare numbers, in %.

{"structure string": "O=C(Nc1ccc(Oc2ccc3[nH]c(NC(=O)c4ccco4)nc3c2)cc1)Nc1cc(C(F)(F)F)ccc1F", "inhibition, %": -3.35}
{"structure string": "Cc1ccc(C(=O)NC2CC2)cc1-c1ccc2[nH]ncc2c1", "inhibition, %": -4.08}
{"structure string": "COc1cc2ncn(-c3cc(OCc4ccccc4S(C)(=O)=O)c(C#N)s3)c2cc1OC", "inhibition, %": 2.92}

Would you kindly look at the next entry?
### Prompt Sample "COc1cc(/C=N/Nc2ncnc3c2cnn3C(C)C)ccc1O" — what was its inhibition?
### Response 1.79
